Here, each record is paired with measured EC50 data.
- System: Rat whole blood (RWB)
- measurement.protocol: LTB4 secretion assay in RWB (rat whole blood)
- Assay type: cell-based
- measurement.setup: Rattus norvegicus

Recorded EC50, per entry:
compound | property | observed.value
Nc1ccc2[nH]c(NCc3ccc(Oc4ccc(Cl)cc4)cc3Cl)nc2c1 [Compound 9] | EC50 | 10 to 20 µM
Nc1nc2cc(NCCOc3ccc(OC(F)(F)F)cc3)ccc2[nH]1 [Compound 75] | EC50 | > 20 µM
Nc1ccc2[nH]c(NCc3ccc(N4CCN(c5ccc(OC(F)(F)F)cc5)CC4)cc3)nc2c1 [Compound 114] | EC50 | > 20 µM

Task: Input Clc1ccc(Oc2ccc(CNc3nc4cc(Nc5cn[nH]c5)ccc4[nH]3)cc2)cc1 [Compound 24] , output reported EC50.
Output: < 10 µM

Task: Input N#CC1(Nc2ccc3[nH]c(NCc4ccc(Oc5ccc(Cl)cc5)cc4)nc3c2)CCC1 [Compound 137] , output reported EC50.
Output: < 10 µM

Task: Input Cc1cc(Nc2ccc3[nH]c(NCc4ccc(Oc5ccc(Cl)cc5)cc4)nc3c2)n[nH]1 [Compound 8] , output reported EC50.
Output: > 20 µM

Task: Input CN(C)c1nc2cc(N3CCC(Oc4ccncc4)C3)ccc2[nH]1 (stereo not drawn) [Compound 202] , output reported EC50.
Output: > 20 µM

Task: Input Nc1ccc2nc(N3CCC3)n(CCOc3ccc(OC(F)(F)F)cc3)c2c1 [Compound 68] , output reported EC50.
Output: > 20 µM

Task: Input Cc1cc(Nc2ccc3nc(NCc4ccc(Oc5ncc(Cl)cn5)cc4)n(C)c3c2)n[nH]1 [Compound 415] , output reported EC50.
Output: < 10 µM

Task: Input Cn1c(NCc2ccc(Oc3ncc(Cl)cn3)c(Cl)c2)nc2ccc(NC3COC3)cc21 [Compound 392] , output reported EC50.
Output: < 10 µM

Task: Input CCn1c(NCc2ccc(Oc3ncc(Cl)cn3)cc2)nc2ccc(Nc3cc(C(C)(C)C)[nH]n3)cc21 [Compound 509] , output reported EC50.
Output: < 10 µM

Task: Input Clc1ccc(Oc2ccc(CNc3nc4cc(NC5COC5)ccc4[nH]3)cc2)cc1 [Compound 125] , output reported EC50.
Output: < 10 µM

====

Here, each record is paired with measured pEC50 data.
- Tested on: Rat whole blood (RWB)
- measurement.protocol: LTB4 secretion assay in RWB (rat whole blood)
- Assay type: cell-based
- measurement.setup: Rattus norvegicus
pEC50: −log10 of the molar value.

Recorded pEC50, per entry:
molecule | measured.target | pEC50
Cn1c(NCc2ccc(Nc3ncc(Cl)cn3)cc2)nc2ccc(NC3COC3)cc21 | Rat whole blood (RWB) | > 5.00
Cn1c(NCc2ccc(Oc3ncc(F)cn3)cc2)nc2ccc(N)cc21 | Rat whole blood (RWB) | > 5.00
Nc1ccc2[nH]c(N3CCCC3c3ccc(Oc4ccc(Cl)cc4)cc3)nc2c1 (stereo not drawn) | Rat whole blood (RWB) | > 5.00
Nc1ccc2[nH]c(NCc3ccc(Cl)cc3F)nc2c1 | Rat whole blood (RWB) | > 5.00
CCOC(=O)c1c[nH]nc1Nc1ccc2[nH]c(NCc3ccc(Oc4ccc(Cl)cc4)cc3)nc2c1 | Rat whole blood (RWB) | < 4.70

Please look at the following molecule next.
Task: Input CCn1c(NCc2ccc(Oc3cnc(C(F)(F)F)cn3)cc2)nc2ccc(Nc3cc(C(F)(F)F)n(C)n3)cc21 , output reported pEC50.
Output: 4.70 to 5.00

====

- System: Rat whole blood (RWB)
- measurement.protocol: LTB4 secretion assay in RWB (rat whole blood)
- Format: cell-based
- measurement.setup: Rattus norvegicus
property: EC50

molecule | EC50
Fc1ccc(Nc2ccc3[nH]c(NCc4ccc(Oc5ccc(Cl)cc5)cc4)nc3c2)cn1 | 10 to 20 µM
Cn1c(NCCOc2ccc(OC(F)(F)F)c(Cl)c2)nc2cc(N)ccc21 | > 20 µM
c1ccc(Oc2ccc(CNc3nc4cc(NC5CCCC5)ccc4[nH]3)cc2)cc1 | < 10 µM

Task: Input CCC(Nc1nc2ccc(NC3COC3)cc2n1C)c1ccc(Oc2ncc(C(F)(F)F)cn2)cc1 (stereo not shown) , output reported EC50.
Output: < 10 µM

Task: Input CCC(Nc1nc2ccc(Nc3cc(C(C)C)[nH]n3)cc2n1C)c1ccc(Oc2ncc(Cl)cn2)cc1 (stereo not shown) , output reported EC50.
Output: < 10 µM

Task: Input Cc1cc(Nc2ccc3nc(NCc4ccc(Oc5ncc(Cl)cn5)c(Cl)c4)n(C)c3c2)n[nH]1 , output reported EC50.
Output: < 10 µM

Task: Input c1ccc(Oc2ccc(CNc3nc4cc(NC5COC5)ccc4[nH]3)cc2)cc1 , output reported EC50.
Output: < 10 µM

====

- measured.target: human 5-LOX (Homo sapiens)
- Construct: purchased Cayman 60402; host or cells: insect cells (lysate)
- measurement.protocol: 5-LOX enzyme activity, fluorescence method (5-HPETE, H2DCFDA)
- Type: biochemical
- measurement.setup: read-out: 5-LO (IC50)
Here, each record is paired with measured IC50 data.

Recorded IC50, per entry:
compound | observed.value
Cc1cc(Nc2ccc3nc(NCc4ccc(Oc5ccc(C(F)(F)F)cn5)cc4)n(C)c3c2)n[nH]1 [Compound 495] | < 1000 nM
Cn1c(NCc2ccc(Oc3ncc(Cl)cn3)c(Cl)c2)nc2ccc(N)cc21 [Compound 391] | < 1000 nM
Nc1ccc2c(c1)nc(N1CCC1)n2CCOc1ccc(OC(F)(F)F)cc1 [Compound 70] | < 1000 nM
CN(C)c1nc2cc(NCc3ccc(-c4ccnn4C)cc3)ccc2[nH]1 [Compound 196] | < 1000 nM
Nc1ccc2[nH]c(NCc3ccc(Oc4ccc(OC(F)(F)F)cc4)cc3)nc2c1 [Compound 88] | < 1000 nM

Task: Input Cn1c(NCc2ccc(Oc3ccc(Cl)cc3)cc2)nc2ccc(N3CC(F)(F)C3)cc21 [Compound 193] , output reported IC50.
Output: > 10000 nM

Task: Input Cc1cc(Nc2ccc3nc(NCc4ccc(Oc5ncc(C(F)(F)F)cn5)cc4)n(C)c3c2)n[nH]1 [Compound 479] , output reported IC50.
Output: < 1000 nM

Task: Input Nc1ccc2nc(N)n(Cc3ccc(Oc4ccc(OC(F)(F)F)cc4)cc3)c2c1 [Compound 245] , output reported IC50.
Output: > 10000 nM

====

Here, each record is paired with measured IC50 data.
- measured.target: human 5-LOX (Homo sapiens, UniProt P09917)
- Construct: purchased Cayman 60402; host or cells: insect cells (lysate)
- Sequence (P09917 whole entry): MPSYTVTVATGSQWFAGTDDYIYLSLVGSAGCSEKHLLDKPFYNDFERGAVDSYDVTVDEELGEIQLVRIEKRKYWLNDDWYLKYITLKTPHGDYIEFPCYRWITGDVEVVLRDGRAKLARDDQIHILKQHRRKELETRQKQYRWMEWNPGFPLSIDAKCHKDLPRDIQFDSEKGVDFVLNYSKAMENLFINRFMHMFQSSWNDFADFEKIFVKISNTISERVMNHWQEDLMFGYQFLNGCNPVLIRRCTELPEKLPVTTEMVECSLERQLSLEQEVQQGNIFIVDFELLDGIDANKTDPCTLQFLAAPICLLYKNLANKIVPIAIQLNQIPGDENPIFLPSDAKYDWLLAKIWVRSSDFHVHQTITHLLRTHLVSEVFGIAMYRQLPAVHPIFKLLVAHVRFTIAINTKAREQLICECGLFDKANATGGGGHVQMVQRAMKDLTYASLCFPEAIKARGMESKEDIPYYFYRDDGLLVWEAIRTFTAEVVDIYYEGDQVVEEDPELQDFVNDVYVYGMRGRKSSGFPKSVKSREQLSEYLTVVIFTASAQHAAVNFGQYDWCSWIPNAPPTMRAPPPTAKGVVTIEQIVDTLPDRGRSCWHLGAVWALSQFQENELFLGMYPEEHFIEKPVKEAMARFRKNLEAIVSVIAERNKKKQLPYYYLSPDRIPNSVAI
- measurement.protocol: 5-LOX enzyme activity, fluorescence method (5-HPETE, H2DCFDA)
- Assay type: biochemical
- measurement.setup: read-out: 5-LO (IC50)

cpd.smiles | observed.value
Cn1c(NCc2ccc(Oc3nc4cc(Cl)ccc4o3)cc2)nc2ccc(NC3COC3)cc21 | < 1 µM
O=C(Nc1nc2cc(NCc3cnc[nH]3)ccc2[nH]1)c1ccc(F)cc1 | 1 to 10 µM

Please look at the following compound next.
Task: Input CNc1nc2ccc(N)cc2n1Cc1ccc(Oc2ccc(Cl)cn2)cc1 , output reported IC50.
Output: < 1 µM
